TEST DESCRIPTION: Elimination half life in Balb/C mouse at 10 mg/kg, iv measured upto 48 hrs by LC-MS/MS analysis
Type: ADME, organism-based
PARTICULARS: in vivo, read-out: beta t1/2 (converted)
MEASURED QUANTITY: half-life

SMILES STR | MEASURED QUANTITY | RESULT VALUE
Cc1ccc(-c2cn([C@H]3CC[C@@H](N)CC3)c3ncnc(N)c23)c(F)c1 | half-life | 3.9 h

----------
TEST DESCRIPTION: Oral bioavailability in Balb/C mouse at 10 mg/kg measured upto 48 hrs by LC-MS/MS analysis
Assay type: ADME, organism-based
PARTICULARS: in vivo

SMILES STR | bioavailability (%)
Cc1ccc(-c2cn([C@H]3CC[C@@H](N)CC3)c3ncnc(N)c23)c(F)c1 | 15.1

----------
TEST DESCRIPTION: Elimination half life in Balb/C mouse at 10 mg/kg, po measured upto 48 hrs by LC-MS/MS analysis
Format: ADME, organism-based
PARTICULARS: in vivo, read-out: beta t1/2 (converted)

SMILES STR | half-life (h)
Cc1ccc(-c2cn([C@H]3CC[C@@H](N)CC3)c3ncnc(N)c23)c(F)c1 | 3.62

----------
Listed below: Activity values for each entry.
STUDY TARGET: UniProtKB P36888
Sequence (P36888 whole entry): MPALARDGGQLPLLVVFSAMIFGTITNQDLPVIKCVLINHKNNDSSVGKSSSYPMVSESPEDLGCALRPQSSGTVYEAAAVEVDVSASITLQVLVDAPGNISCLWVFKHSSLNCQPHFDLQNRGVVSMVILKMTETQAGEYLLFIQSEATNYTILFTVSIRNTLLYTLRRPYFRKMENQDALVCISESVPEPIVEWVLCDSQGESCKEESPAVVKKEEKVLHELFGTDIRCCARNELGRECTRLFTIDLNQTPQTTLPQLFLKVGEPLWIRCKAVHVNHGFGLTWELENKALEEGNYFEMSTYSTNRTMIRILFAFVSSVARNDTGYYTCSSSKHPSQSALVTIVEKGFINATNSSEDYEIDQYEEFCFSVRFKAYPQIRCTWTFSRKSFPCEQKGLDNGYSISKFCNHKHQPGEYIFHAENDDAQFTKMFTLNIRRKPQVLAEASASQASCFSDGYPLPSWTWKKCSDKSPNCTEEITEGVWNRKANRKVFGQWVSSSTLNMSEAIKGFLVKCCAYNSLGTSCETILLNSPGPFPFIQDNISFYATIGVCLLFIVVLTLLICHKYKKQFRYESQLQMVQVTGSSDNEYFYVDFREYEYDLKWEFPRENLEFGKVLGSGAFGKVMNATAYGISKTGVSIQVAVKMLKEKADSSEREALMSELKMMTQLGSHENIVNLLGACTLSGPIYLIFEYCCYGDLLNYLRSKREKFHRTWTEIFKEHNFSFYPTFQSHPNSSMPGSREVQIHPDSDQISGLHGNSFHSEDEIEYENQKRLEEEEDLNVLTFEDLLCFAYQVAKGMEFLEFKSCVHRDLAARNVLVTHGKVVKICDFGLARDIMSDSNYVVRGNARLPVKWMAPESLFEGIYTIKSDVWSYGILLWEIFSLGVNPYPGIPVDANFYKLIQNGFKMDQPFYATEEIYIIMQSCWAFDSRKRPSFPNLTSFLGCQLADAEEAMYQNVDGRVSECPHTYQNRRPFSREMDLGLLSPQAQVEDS
TEST DESCRIPTION: Inhibition of human Flt3 using EAIYAAPFAKKK peptide substrate assessed as active kinase incubated for 40 mins in presence of [gamma33P]ATP at 1000 nM by scintillation counting based radiometry assay relative to control
Parameters: scale not given: the % may be the effect or the level left

SMILES STR | Activity (%)
COc1ccc(-c2cn([C@H]3CC[C@@H](NS(=O)(=O)C(F)(F)F)CC3)c3ncnc(N)c23)cc1 | 55
COc1ccc(-c2cn([C@H]3CC[C@@H](NCc4cccc(OC(F)(F)F)c4)CC3)c3ncnc(N)c23)cc1 | 86
COc1ccc(-c2cn([C@H]3CC[C@@H](N)CC3)c3ncnc(N)c23)cc1 | 68
COc1ccc(-c2cn([C@H]3CC[C@@H](NC(C)=O)CC3)c3ncnc(N)c23)cc1 | 57
COc1ccc(-c2cn([C@H]3CC[C@@H](NCc4ccccc4)CC3)c3ncnc(N)c23)cc1 | 70
CCC(=O)N[C@H]1CC[C@@H](n2cc(-c3ccc(OC)cc3)c3c(N)ncnc32)CC1 | 54
C=CCN[C@H]1CC[C@@H](n2cc(-c3ccc(OC)cc3)c3c(N)ncnc32)CC1 | 58
CCCC(=O)N[C@H]1CC[C@@H](n2cc(-c3ccc(OC)cc3)c3c(N)ncnc32)CC1 | 49

----------
STUDY TARGET: Receptor-interacting serine/threonine-protein kinase 1 (Homo sapiens)
TEST DESCRIPTION: Inhibition of human RIPK1 assessed as active kinase incubated for 120 mins in presence of [gamma33P]ATP at 1000 nM by scintillation counting based radiometry assay relative to control
Parameters: scale not given: the % may be the effect or the level left
# maps each entry to its Activity

SMILES STR | Activity
CCC(=O)N[C@H]1CC[C@@H](n2cc(-c3ccc(OC)cc3)c3c(N)ncnc32)CC1 | 77%
Cc1ccc(-c2nn(C(C)(C)CNC(=O)c3ccncc3)c3ncnc(N)c23)cc1 | 95%
Nc1ncnc2c1c(-c1cccc(Cl)c1)cn2[C@H]1CC[C@@H](N)CC1 | 116%
COc1ccc(-c2cn([C@H]3CC[C@@H](NC(=O)c4cc(OC)c(OC)c(OC)c4)CC3)c3ncnc(N)c23)cc1 | 87%
COc1ccc(-c2cn([C@H]3CC[C@@H](NC(=O)C(C)(C)C)CC3)c3ncnc(N)c23)cc1 | 77%
C=CCN[C@H]1CC[C@@H](n2cc(-c3ccc(OC)cc3)c3c(N)ncnc32)CC1 | 85%
